Test system: 782815-120-R-J1-PDC complex spheroid viability
PROTOCOL SUMMARY: Anticancer human tumor 782815-120-R-J1-PDC patient-derived colon adenocarcinoma cell line growth inhibition [RAS]
CONDITION SET: second compound 1 µM; first compound 0.316 µM; stronger effect = lower value
MEASUREMENT LABEL: viability, T/C (%)

1. C[C@@H](NC(=O)c1ncnc(N)c1Cl)c1ncc(C(=O)Nc2cc(C(F)(F)F)c(Cl)cn2)s1 + C=CC(=O)N1CCN(c2nc(OCC3CCCN3C)nc3c(F)c(-c4nc(N)cc(C)c4C(F)(F)F)c(Cl)cc23)C(C)C1; 98.5
2. CC(Nc1ccc2c(c1)OCCn1cc(N3C(=O)OCC3C(F)F)nc1-2)C(N)=O (centres undefined) + C=CC(=O)N1CCN(c2nc(OCC3CCCN3C)nc3c(F)c(-c4nc(N)cc(C)c4C(F)(F)F)c(Cl)cc23)C(C)C1; 87.2
3. C=CC(=O)Nc1cc(Nc2nccc(-c3cn(C)c4ccccc34)n2)c(OC)cc1N(C)CCN(C)C + C#Cc1c(F)ccc2cc(O)cc(-c3ncc4c(N5CC6CCC(C5)N6)nc(OCC56CCCN5CC(F)C6)nc4c3F)c12; 100
4. CCN1CCN(Cc2ccc(Nc3ncc(F)c(-c4cc(F)c5nc(C)n(C(C)C)c5c4)n3)nc2)CC1 + C=CC(=O)N1CCN(c2nc(OCC3CCCN3C)nc3c(F)c(-c4nc(N)cc(C)c4C(F)(F)F)c(Cl)cc23)C(C)C1; 108
5. CC(=O)OC12COC1CC(O)C1(C)C(=O)C(O)C3=C(C)C(OC(=O)C(O)C(NC(=O)OC(C)(C)C)c4ccccc4)CC(O)(C(OC(=O)c4ccccc4)C21)C3(C)C (centres undefined) + C=CC(=O)N1CCN(c2nc(OCC3CCCN3C)nc3c(F)c(-c4nc(N)cc(C)c4C(F)(F)F)c(Cl)cc23)C(C)C1; 27.4
6. CC(C)NCC(C(=O)N1CCN(c2ncnc3c2C(C)CC3O)CC1)c1ccc(Cl)cc1 (centres undefined) + C=CC(=O)N1CCN(c2nc(OCC3CCCN3C)nc3c(F)c(-c4nc(N)cc(C)c4C(F)(F)F)c(Cl)cc23)C(C)C1; 92.5
7. C[C@@H](NC(=O)c1ncnc(N)c1Cl)c1ncc(C(=O)Nc2cc(C(F)(F)F)c(Cl)cn2)s1 + C#Cc1c(F)ccc2cc(O)cc(-c3ncc4c(N5CC6CCC(C5)N6)nc(OCC56CCCN5CC(F)C6)nc4c3F)c12; 111
8. Nc1ccn(C2OC(CO)C(O)C2(F)F)c(=O)n1 (centres undefined) + C#Cc1c(F)ccc2cc(O)cc(-c3ncc4c(N5CC6CCC(C5)N6)nc(OCC56CCCN5CC(F)C6)nc4c3F)c12; 38.1
9. O=C(c1ccc(F)c(F)c1Nc1ccc(I)cc1F)N1CC(O)([C@@H]2CCCCN2)C1 + C#Cc1c(F)ccc2cc(O)cc(-c3ncc4c(N5CC6CCC(C5)N6)nc(OCC56CCCN5CC(F)C6)nc4c3F)c12; 18.1

====

Tested on: 782815-120-R-J1-PDC complex spheroid viability
PROTOCOL SUMMARY: Anticancer human tumor 782815-120-R-J1-PDC cell line growth inhibition [RAS];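 also: spheroids exposed to compounds for 7 days before reading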
CONDITION SET: curve of first compound; second compound 0.000949 µM
From the text: RAS pathway inhibitors in Combinations in Complex Spheroids A high-throughput screen of multi-cell type tumor spheroids was designed to identify active combinations of RAS pathway inhibitors and targeted small molecules. Complex spheroids include a stromal component modeled by human endothelial cells (HUVEC) and fibroblasts modeled by human mesenchymal stem cells (MSCs). […] Compounds. […] If the clinical Cmax for an agent had not been determined, the highest concentration tested was 10 microM. […]
Measured IC50 accompanies every entry in the list below.
MEASUREMENT LABEL: IC50

1) C[C@@H](NC(=O)c1ncnc(N)c1Cl)c1ncc(C(=O)Nc2cc(C(F)(F)F)c(Cl)cn2)s1 + CCn1c(-c2cccnc2C(C)OC)c2c3cc(ccc31)N1CCOC(CC(NC(=O)C(C(C)C)N(C)C(=O)C3(F)CCN(C(=O)C#CC(C)(C)N(C)C)CC3)C(=O)N3CCCC(N3)C(=O)OCC(C)(C)C2)C1; > 10000 nM
2) CC1(C)CCC(Nc2ncc(C(F)(F)F)c(-c3c[nH]c4c(P(C)(C)=O)c(C#N)ccc34)n2)CN1 (stereo not drawn) + CCn1c(-c2cc(N3CCN(C)CC3)cnc2C(C)OC)c2c3cc(ccc31)-c1csc(n1)CC(NC(=O)C1CC1C)C(=O)N1CCCC(N1)C(=O)OCC(C)(C)C2; 14.6 nM
3) CCC(CC)c1cc(NC2CCC(N)C2)n2nccc2n1 (stereo not drawn) + CCn1c(-c2cc(N3CCN(C)CC3)cnc2C(C)OC)c2c3cc(ccc31)-c1csc(n1)CC(NC(=O)C1CC1C)C(=O)N1CCCC(N1)C(=O)OCC(C)(C)C2; 2020 nM
4) Cc1nc(N2CCC3(CC2)COC(C)C3N)c(CO)nc1Sc1ccnc(N)c1Cl (stereo not drawn) + CCn1c(-c2cc(N3CCN(C)CC3)cnc2C(C)OC)c2c3cc(ccc31)-c1csc(n1)CC(NC(=O)C1CC1C)C(=O)N1CCCC(N1)C(=O)OCC(C)(C)C2; > 10000 nM
5) C[C@@H](NC(=O)c1ncnc(N)c1Cl)c1ncc(C(=O)Nc2cc(C(F)(F)F)c(Cl)cn2)s1 + CCn1c(-c2cc(N3CCN(C)CC3)cnc2C(C)OC)c2c3cc(ccc31)-c1csc(n1)CC(NC(=O)C1CC1C)C(=O)N1CCCC(N1)C(=O)OCC(C)(C)C2; > 10000 nM
6) CC(C)n1nc(-c2ccc3oc(N)nc3c2)c2c(N)ncnc21 + CCn1c(-c2cc(N3CCN(C)CC3)cnc2C(C)OC)c2c3cc(ccc31)-c1csc(n1)CC(NC(=O)C1CC1C)C(=O)N1CCCC(N1)C(=O)OCC(C)(C)C2; > 100 nM
7) CC(=O)OC12COC1CC(O)C1(C)C(=O)C(O)C3=C(C)C(OC(=O)C(O)C(NC(=O)OC(C)(C)C)c4ccccc4)CC(O)(C(OC(=O)c4ccccc4)C21)C3(C)C (stereo not drawn) + CCn1c(-c2cc(N3CCN(C)CC3)cnc2C(C)OC)c2c3cc(ccc31)-c1csc(n1)CC(NC(=O)C1CC1C)C(=O)N1CCCC(N1)C(=O)OCC(C)(C)C2; < 31.6 nM
8) CCN1CCN(Cc2ccc(Nc3ncc(F)c(-c4cc(F)c5nc(C)n(C(C)C)c5c4)n3)nc2)CC1 + CCn1c(-c2cccnc2C(C)OC)c2c3cc(ccc31)N1CCOC(CC(NC(=O)C(C(C)C)N(C)C(=O)C3(F)CCN(C(=O)C#CC(C)(C)N(C)C)CC3)C(=O)N3CCCC(N3)C(=O)OCC(C)(C)C2)C1; > 1000 nM

====

Measured viability, T/C accompanies every entry in the list below.
Tested on: 782815-120-R-J1-PDC complex spheroid viability
PROTOCOL SUMMARY: Anticancer human tumor 782815-120-R-J1-PDC cell line growth inhibition [RAS];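 also: spheroids exposed to compounds for 7 days before reading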;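 as to viability, T/C: 100% = DMSO vehicle control viability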
CONDITION SET: second compound 0.00949 µM; first compound 3.16 µM; stronger effect = lower value
MEASUREMENT LABEL: viability, T/C (%)

1) CCC(CC)c1cc(NC2CCC(N)C2)n2nccc2n1 (stereo not drawn) + CCn1c(-c2cccnc2C(C)OC)c2c3cc(ccc31)N1CCOC(CC(NC(=O)C(C(C)C)N(C)C(=O)C3(F)CCN(C(=O)C#CC(C)(C)N(C)C)CC3)C(=O)N3CCCC(N3)C(=O)OCC(C)(C)C2)C1; 45.1
2) CCC(CC)c1cc(NC2CCC(N)C2)n2nccc2n1 (stereo not drawn) + CCn1c(-c2cc(N3CCN(C)CC3)cnc2C(C)OC)c2c3cc(ccc31)-c1csc(n1)CC(NC(=O)C1CC1C)C(=O)N1CCCC(N1)C(=O)OCC(C)(C)C2; 6.65
3) NC1c2ccccc2OC12CCN(c1cnc3c(N4CCCc5ncccc54)n[nH]c3n1)CC2 (stereo not drawn) + CCn1c(-c2cccnc2C(C)OC)c2c3cc(ccc31)N1CCOC(CC(NC(=O)C(C(C)C)N(C)C(=O)C3(F)CCN(C(=O)C#CC(C)(C)N(C)C)CC3)C(=O)N3CCCC(N3)C(=O)OCC(C)(C)C2)C1; 100
4) CC(Nc1ccc2c(c1)OCCn1cc(N3C(=O)OCC3C(F)F)nc1-2)C(N)=O (stereo not drawn) + CCn1c(-c2cccnc2C(C)OC)c2c3cc(ccc31)N1CCOC(CC(NC(=O)C(C(C)C)N(C)C(=O)C3(F)CCN(C(=O)C#CC(C)(C)N(C)C)CC3)C(=O)N3CCCC(N3)C(=O)OCC(C)(C)C2)C1; 93.8
5) C[C@@H](NC(=O)c1ncnc(N)c1Cl)c1ncc(C(=O)Nc2cc(C(F)(F)F)c(Cl)cn2)s1 + CCn1c(-c2cc(N3CCN(C)CC3)cnc2C(C)OC)c2c3cc(ccc31)-c1csc(n1)CC(NC(=O)C1CC1C)C(=O)N1CCCC(N1)C(=O)OCC(C)(C)C2; 47
6) CC(Nc1ccc2c(c1)OCCn1cc(N3C(=O)OCC3C(F)F)nc1-2)C(N)=O (stereo not drawn) + CCn1c(-c2cc(N3CCN(C)CC3)cnc2C(C)OC)c2c3cc(ccc31)-c1csc(n1)CC(NC(=O)C1CC1C)C(=O)N1CCCC(N1)C(=O)OCC(C)(C)C2; 24.1
7) CC1(O)CCCC1n1c(=O)c(C(F)F)cc2cnc(NC3CCN(S(C)(=O)=O)CC3)nc21 (stereo not drawn) + CCn1c(-c2cc(N3CCN(C)CC3)cnc2C(C)OC)c2c3cc(ccc31)-c1csc(n1)CC(NC(=O)C1CC1C)C(=O)N1CCCC(N1)C(=O)OCC(C)(C)C2; 30
8) CC(=O)OC12COC1CC(O)C1(C)C(=O)C(O)C3=C(C)C(OC(=O)C(O)C(NC(=O)OC(C)(C)C)c4ccccc4)CC(O)(C(OC(=O)c4ccccc4)C21)C3(C)C (stereo not drawn) + CCn1c(-c2cccnc2C(C)OC)c2c3cc(ccc31)N1CCOC(CC(NC(=O)C(C(C)C)N(C)C(=O)C3(F)CCN(C(=O)C#CC(C)(C)N(C)C)CC3)C(=O)N3CCCC(N3)C(=O)OCC(C)(C)C2)C1; 26.1

Value source: PubChem BioAssay AID2060887
